Data provenance: patent US5128344A

- Test system: Aspergillus fumigatus
- protocolNotes: MIC, twofold serial broth dilution assay, Aspergillus fumigatus
- Type: cell-based, Aspergillus fumigatus ATCC 26934
- cond: Af, MYCO (Mycophil broth), 30°, 48 hours
- Description: The generic name for the compound is 3-Methoxysampangine. The antifungal activity of the compound was determined by in vitro evaluation against Candida albicans NIH B311, Cryptococcus neoformans ATCC 32264, and Aspergillus fumigatus ATCC 26934 using the known agar-well diffusion assay techniques with the following modifications. Candida albicans NIH B311 used to induce experimental disseminated candidiasis was used for the initial qualitative evaluation of anticandidal activity. […]
MIC by entry:
assayReadout: MIC (µg/mL)

molecule	assayReadout	obsValue
C[C@@H]1[C@H](O)[C@@H](C)/C=C/C=C/C=C/C=C/C=C/C=C/C=C/[C@H](O[C@@H]2O[C@H](C)[C@@H](O)[C@H](N)[C@@H]2O)C[C@@H]2O[C@](O)(C[C@@H](O)C[C@@H](O)[C@H](O)CC[C@@H](O)C[C@@H](O)CC(=O)O[C@H]1C)C[C@H](O)[C@H]2C(=O)O [Amphotericin B, reference compound]	MIC	3.12
O=C1c2ccccc2-c2nccc3c(Br)cnc1c23	MIC	50
O=C1c2ccccc2-c2nccc3ccnc1c23	MIC	1.56
O=C1c2ccccc2-c2nccc3c2c1nc1ccccc13 [Benzo[4,5]sampangine]	MIC	0.39
